B1: tRNA (parent)
chain: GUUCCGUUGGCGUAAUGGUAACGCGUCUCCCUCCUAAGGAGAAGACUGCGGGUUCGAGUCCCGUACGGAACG

- Variants of: B1
- TEST_DESCRIPTION: yeast fitness relative to wild type (ratio to wild type); higher = fitter; tRNA-Arg(CCU), competitive growth, 37 C, YPD
Variants at the floor of the assay were thinned out.
The reader will find reported yeast fitness values listed item by item below.
ENDPOINT_LABEL: yeast fitness

> print(dat)
                               sequence.code  endpoint.label  bound.type  endpoint.value
 1  GUUCGGUUGGCGUAAUGGUAACGCGUUUCCCUCCUAAGGAGAAGACUGCGGGUUCGAGUCCCGUACGGAACG   yeast fitness           =           0.651
 2  GUUCGGUUGGCGUAAUGGUCACACGUCUCCCUCCUAAGGAGAAGACUGCGGGUACGAGUCCCGUACGGAACG   yeast fitness           ≤             0.5
 3  GUUCCGUUGGCGUAAUGGUAACGCGUCUCCCUCCUAAGGACAAGACUGCGGGUUCGAGUCCUGUACGGCACG   yeast fitness           =           0.619
 4  GUUCCGUUGCCGUAAUGGUAAAGCGUCUCCCUCCUAAGGAGAAGACUGCGGGUUCCAGUCCCGUGCGGAACG   yeast fitness           ≤             0.5
 5  GUUCCGUUGCCGUAAUGGUAACGCGUCUCCCUCCUAAGGAGAAGACUGCGGGUUCGAGUCACGUACGGGACG   yeast fitness           ≤             0.5
 6  GUUCCGUUGCCGUAAUGGUAACGCGUCUCCCUCCUAGGGAGAAGACUGCGGGUUCGAGUCCCGUACGGAACG   yeast fitness           =           0.656
 7  GUUCCGUUGGCGUAAUGGUAACGCGUCUCCCUCCUAAGGAGAAGACUGAGGGCUCGAGUCCGGUACGGAACG   yeast fitness           =           0.598
 8  GUUCCGUUGGCGUAAUGGUAACGCGUCUCCCUCCUAAGGAAAAGACUGCGGGUUCGAGGCCCGUACGGCACG   yeast fitness           ≤             0.5
 9  GUUCCGUUGCCGUAAUGGUAACGCGUCUCCCUCCUAAGGAGAAGACUGCGGGUUCGGGUCCCGUACGGUACG   yeast fitness           =           0.559
10  GUUCCGUUGGCGUAAUGGUAACGCGUCUCCGUCCUAAGGAGAAGACUGCGAGUUGGAGUCCCGUACGCAACG   yeast fitness           =            0.56
11  GUUCCGUUGGCGUAAUAGUAACGCGUCUCCCUCCUGAGGAGAAGACUGCGGGUUCGAGUCCCGUAUGGAACG   yeast fitness           =            0.65
12  GUUCCGUUGGCGUAAUGGUAACGCGUCUCCCUCCUAAGGAGAAAACUGCGGGUUGGAGUCCCGUACGGAACG   yeast fitness           =           0.558
13  GUUCCGUUGGCGUAAUGGUAACGCGUCUCCCUCCUAAGGAGAAGACUGUGGGUUUGAGUCCCGUACGGAACG   yeast fitness           =           0.649
14  GUUCCGUUGGCGUAAUGGUAACGCGUCUCCCUCCUCAGGAGAAGACUGCGGGUUCGAGUCCCGCACGGAACG   yeast fitness           =           0.824
15  GUUCUGUUGGCGUAAUGGUAACGCGUCUCCUUCCUAAGGACACGACUGCGGGUUCGAGUGCCGUACGGAACG   yeast fitness           ≤             0.5
16  GUUCCGUUGGCGUAAUGGUAACGCGUCUCCCUCCUCUGGAGAAGACUGCGGGUUCGAGUCCCGUACGGAACG   yeast fitness           ≤             0.5
17  GUUCCGUUGGCGUAAUGGUAACGCGUGUCCCUCCUACGGAGAAGACUCCGGGUUAGAGUCCCAUACGGAACG   yeast fitness           =           0.526
18  GUUCCGUUGGCGUAAUGGUAACGCGUCUCCCGCCUAAGGUGAAGACUGCGGGUUCGAGACCCGUACGGAACG   yeast fitness           ≤             0.5
19  GUUCCGUUGGCGAAAUGGUAACGCGUCUCCCUCCUAAGGAGAAGACUGCCGGUUCGAGUCCCGUACGGAUCG   yeast fitness           ≤             0.5
20  GUUCCGUUGGCGUAAUGGUAACGCGACCCGCUCCUAAGGAGAAGACUGCGGGUUCGAGUCCCGUACGGAACG   yeast fitness           ≤             0.5
21  GUUCCGAAGGGGUAAUGGUAACGCGUCUCCCUCCUAAGGAGAAGACUGCGGGUUCAAGUCCCGUACGGUACG   yeast fitness           =           0.548
22  GUUCCGUUGGCGUACUGGUAACGCGUCUCCCUCCUCACGAGAAGACUGCGGAUUCGAGUCCCGUACGGAACG   yeast fitness           ≤             0.5
23  GUUCCGUUGGCGUAAUGGUAACGCGUCUCCCUCCUAAGGAGAAGACUGCGCGUUCGAGGCCCGUACGGAACG   yeast fitness           =           0.508
24  GUUCCGUUGGCGUAAUGGUAACGCGUCUCCCUCCUCAGGAGAAGACUGCGGGUUCGAGUUCUGUCCGGAACG   yeast fitness           ≤             0.5
25  GUUCGGUUGGCGUAAUGGUAACGCGUCUCCCUCGUAAGGAGAAGACUGUAGGUUCGAGUCCCGUACGGAACG   yeast fitness           ≤             0.5
26  GUUCCGUUGGCGUAAUGGUAACGCGUCAGCCUCCUAAGGAGAAGACUGCGAGUUCAAGUCCCGUAGGGAACG   yeast fitness           ≤             0.5
27  GUUCCGUUGGCGUAAUGGUAACGCGUCAGCCUUGUAAGGAGUAGACUGCGGGUUCGAAUCCCGUACGGAACG   yeast fitness           ≤             0.5
28  GUUCUGUUGGCGUAAUGGUAACGCGUCUCCCUCCUAGGGAGAAGACUGCGGGUUCCAGUCCCGUCCGGAACG   yeast fitness           ≤             0.5
29  GUUCCGUUGCCGUAAUGGUAGCGCGUCUCCCUCCUAAGGAGAAGACUGCGGGUUGGGGUACCGUACGGAACG   yeast fitness           ≤             0.5
30  GUUCCAUUGGCGUAAUGGUAACGCGUCUCCCUACAAAGGAGAAGACUGCGGGUUCGAGUCCCGUACGCAACG   yeast fitness           ≤             0.5
31  GUUCCGUUGGCGUAGUGGUAACGCGUCUCCCUCCUAAGGAGAAGACUGCGGGUUCGAGUCCCGUACGGAACG   yeast fitness           =           0.987
32  GUUCCGUUGGCGUAAUGGUAACGCGUCUCACUCCUAAGGAGAAGAGUGCGGGUUCGAGUCCCGUACGGAACG   yeast fitness           =           0.991
33  GUUCCGUUGGCGUAAUGGUAACGCGUCUCCCUCUUAAGGAGAAGACUGCGGGUUCGAGUUCCGUACGGAACG   yeast fitness           =           0.563
34  GUUCCGUUGGCGUAAUGGUAACGCGUCUCCCUCCUAAGGCGAAGACUGGGGGUUCGAGUCCCGUGCGGAACG   yeast fitness           =           0.584
35  GUUCCGUUGGCGUAGUGGUAACGCGUCUCCCUCCUAAGGAGAAGACUGCGGGUUCGAGUCCCGUACAGAACG   yeast fitness           =           0.868
36  GUUCCGUUGGCGUAUUGGUAACGCGUCUCCCUCCUAAGGAGAAGACUGCGGGUUCGAGUCCCAUACGGAACG   yeast fitness           =           0.675
37  GUUCCGUUGGCGUAAUGGUAACGCGUCUCCCUCAUCAGGAGAAGACUGCGGGUUCGAGUCUCGAACGGAACG   yeast fitness           ≤             0.5
38  GUUCCGUUAGCGUAAUGGGAACGCGUCUCCGUCCUAAGGAGAAGACUGCGGGUUCGAGUCCCGUACGGAACG   yeast fitness           ≤             0.5
39  GUUCCGUUGGCGAAAUGGUAACGCGUUUCCCUCCUAAGGAGAAGACUGCGGGUUCGAGUCCCGUACGGAUCG   yeast fitness           =           0.867
40  GUUCCGUUGGCGUAAUGGUAACGCGUCUCCCUUCUAAAGAGAAGAUUGCGGGUUCGAGUCCCGUACGGAACG   yeast fitness           =           0.562
41  GUUCCGUUGGGGUAAUGGUAACGCGCCUCCCUCCUAAGGAGAAGACUGCGGGUUCGAGUCUGGUACGGAACG   yeast fitness           =            0.62
42  GUUCCGUUGGCGUAAUGGUAACGCGUCUCCCUCCUAGGGAGAAGACGGCGGAUUCGAGUCCCGUACGGAACG   yeast fitness           ≤             0.5
43  GUUCCGUUGGCGUAAUGGUAACGCGUCUCCCUCCUAACGAGAAGAGUGGGCGUUCGAGUCUCGUACGGAACG   yeast fitness           =           0.593
44  GUUCCGUUGGCGUAAUGGUAACGCGUCUCCCGCCUAAGGAGAAGACUGCAGGUUCGAGUCCCGUACGGAACG   yeast fitness           =           0.714
45  GUUCCGUUGGCGAAAUGGUAAGGCGUCUCCGUCCUAAGGAGAAGACUGCGGGUUCGAGUCACGUACGGAACG   yeast fitness           =           0.512
